Sourced from ChEMBL document CHEMBL1148684

- experimental-system: Glutamate NMDA receptor
- protocol-notes: Inhibition of NMDA-evoked increase in intracellular calcium ion in rat cortical cells
recorded-metric: IC50 (nM)

> print(dat)
                                   compound  test.value
1  CS(=O)(=O)Nc1ccc2nc(CN3CCC(Cc4ccccc4)CC3)[nH]c2c1         8.6
2  O=c1[nH]c2ccc([S+]([O-])CCN3CCC(Cc4ccc(F)cc4)CC3)cc2o1 (centres undefined)         6.6

P: O=C(c1nc2ccc(O)cc2[nH]1)N1CCC(Cc2cccc(F)c2)CC1
Q: Cc1ccc(CC2CCN(C(=O)c3nc4ccc(O)cc4[nH]3)CC2)cc1
Query: Which of the two items, P and Q , has the greater recorded IC50? Your answer should be the label attached to the chosen record.
Response: Q
(Q: 8.7 nM, P: 6 nM)
